- study-target: UniProt:O75173
- Sequence (O75173 213-837): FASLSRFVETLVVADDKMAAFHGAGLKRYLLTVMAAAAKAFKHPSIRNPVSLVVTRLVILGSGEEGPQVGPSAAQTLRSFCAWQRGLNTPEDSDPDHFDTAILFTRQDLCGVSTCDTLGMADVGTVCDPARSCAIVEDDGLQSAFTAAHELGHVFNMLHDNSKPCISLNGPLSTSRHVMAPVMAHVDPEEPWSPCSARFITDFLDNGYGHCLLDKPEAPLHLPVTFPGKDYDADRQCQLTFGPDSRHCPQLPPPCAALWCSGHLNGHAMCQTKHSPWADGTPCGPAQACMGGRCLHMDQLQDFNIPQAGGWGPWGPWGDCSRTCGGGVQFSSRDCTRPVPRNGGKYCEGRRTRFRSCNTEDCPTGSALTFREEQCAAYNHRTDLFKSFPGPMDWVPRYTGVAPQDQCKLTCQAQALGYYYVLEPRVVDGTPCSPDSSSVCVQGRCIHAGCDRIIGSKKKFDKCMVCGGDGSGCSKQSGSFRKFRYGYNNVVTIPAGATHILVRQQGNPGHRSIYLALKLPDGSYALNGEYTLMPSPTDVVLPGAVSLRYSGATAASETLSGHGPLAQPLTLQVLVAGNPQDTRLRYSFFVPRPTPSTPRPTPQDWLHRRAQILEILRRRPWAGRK
- procedure-details: Aggrecanase-1 inhibitory action (Particle Assay, GAG release from aggrecan-containing polyacrylamide particles)
- Type: biochemical
- test-conditions: aggrecanase-1 inhibitory action; read-out: IC50 AG1 (Experimental Example 1)
- Experimental: Particle Assay was used for determination of aggrecanase activity. The enzyme and substrate were diluted with Tris-HCl buffer, and test compounds were diluted with dimethyl sulfoxide (DMSO). […] After incubation, the supernatant was transferred to another plate, and mixed with 1,9-dimethylmethylene blue. The absorbence at 595 nm was measured to quantify the amount of glycosaminoglycan (GAG) released in the reaction supernatant. […]
measurement-label: IC50

Worked cases, answers included:
Q) Note IC50 for the compound shown: CC(C)(C)OC(=O)Nc1ccccc1C1CC1(NS(=O)(=O)c1ccc(-c2ccc(Cl)cc2)s1)C(=O)O (stereo not drawn)
A) < 1000 nM

Q) Answer with the recorded IC50 of O=C(O)[C@]1(NS(=O)(=O)c2ccc(-c3cc4ccccc4o3)s2)C[C@@H]1c1ccccc1 only.
A) ≥ 1000 nM

Q) Give a short answer stating reported IC50 for CCCc1cc(-c2ccc(S(=O)(=O)N[C@@]3(C(=O)O)C[C@@H]3c3ccccc3)s2)no1 .
A) ≥ 1000 nM

Q) Give the reported IC50 for this compound. CN1CCN(c2ccc(C3CC3(NS(=O)(=O)c3ccc(-c4ccc(Cl)cc4)s3)C(=O)O)cc2)CC1 (stereo not drawn) [Example 2-246]
A) ≥ 1000 nM

Q) Please give the documented IC50 of O=C(O)C1(NS(=O)(=O)c2ccc(-c3ccc(Cl)cc3)s2)CC1c1cccc(OCc2ccccn2)c1 (stereo not drawn)
A) < 100 nM

Items follow; give IC50 for each.
1. O=C(NO)C1(NS(=O)(=O)c2ccc(OCc3ccc(Cl)cc3Cl)cc2)CC1c1ccccc1 (stereo not drawn)
2. O=C(COc1ccccc1C1CC1(NS(=O)(=O)c1ccc(-c2ccc(Cl)cc2)s1)C(=O)O)NCc1ccccc1 (stereo not drawn)
3. CS(=O)(=O)Nc1cccc(C2CC2(NS(=O)(=O)c2ccc(-c3ccc(Cl)cc3)s2)C(=O)O)c1 (stereo not drawn)
4. CN(Cc1cccnc1)c1cccc(C2CC2(NS(=O)(=O)c2ccc(-c3ccc(Cl)cc3)s2)C(=O)O)c1 (stereo not drawn)
5. NCc1ccc(C2CC2(NS(=O)(=O)c2ccc(-c3ccc(Cl)cc3)s2)C(=O)O)cc1 (stereo not drawn)
6. O=C(O)C1(NS(=O)(=O)c2ccc(-c3ccc(Cl)cc3)cc2)CC1c1cccc(OCCO)c1 (stereo not drawn)
7. O=C(O)c1ccc(S(=O)(=O)NC2(C(=O)O)CC2c2ccccc2)s1 (stereo not drawn)
8. O=C(CCc1cccc(C2CC2(NS(=O)(=O)c2ccc(-c3cc(C(F)(F)F)on3)s2)C(=O)O)c1)N1CCOCC1 (stereo not drawn)

A)
1. < 100 nM
2. < 1000 nM
3. < 100 nM
4. < 100 nM
5. < 1000 nM
6. < 1000 nM
7. ≥ 10000 nM
8. < 100 nM

Answer for every listed entry: what is its IC50? The entries follow.
1. O=C(O)Cc1cccc(C2CC2(NS(=O)(=O)c2ccc(-c3ccc(Cl)cc3)s2)C(=O)O)c1 (stereo not drawn)
2. C[C@]1(c2ccccc2)C[C@@]1(NS(=O)(=O)c1ccc(-c2ccc(Cl)cn2)s1)C(=O)O

A)
< 100 nM
< 100 nM

----------
- study-target: Recombinant Human MMP-13 (Homo sapiens, UniProt P45452)
- Construct: purchased R&D systems 511-MM
- procedure-details: MMP-13 inhibitory activity (MMP-13 specific fluorescent substrate with quencher)
- Format: biochemical
- test-conditions: Recombinant Human MMP-13, fluorescent substrate, 25° C. for 1 h; read-out: IC50 MMP13 (Experimental Example 3)
measurement-label: IC50

# example entries with known answers
Q) Complete the entry with IC50 for CC(C)(C)C1CC1(NS(=O)(=O)c1ccc(-c2ccc(Cl)cc2)s1)C(=O)O (stereo not drawn) [Example 2-62]
A) < 1000 nM

Q) Write down IC50 measured for item O=C(O)CCc1ccccc1C1CC1(NS(=O)(=O)c1ccc(-c2ccc(Cl)cc2)s1)C(=O)O (stereo not drawn) [Example 2-179]
A) < 1000 nM

Q) Hello, please tell me recorded IC50 for this one: O=C1O[C@@H]([C@H]2C[C@@]2(NS(=O)(=O)c2ccc(-c3ccc(Cl)cc3)s2)C(=O)O)CN1Cc1ccccc1 [Example 2-139]
A) ≥ 1000 nM

Q) Tell us which IC50 value is on record for O=C(c1cccc(C2CC2(NS(=O)(=O)c2ccc(-c3cc(C(F)(F)F)on3)s2)C(=O)O)c1)N1CCOCC1 (stereo not drawn) [Example 2-258]
A) < 1000 nM

Q) Input COCCN(C)C(=O)c1cccc(C2CC2(NS(=O)(=O)c2ccc(-c3ccc(Cl)cc3)s2)C(=O)O)c1 (stereo not drawn) [Example 2-69] , output reported IC50.
A) < 100 nM

Please give IC50 for each item listed below.
1. Nc1cccc(C2CC2(NS(=O)(=O)c2ccc(-c3cc(C(F)(F)F)on3)s2)C(=O)O)c1 (stereo not drawn) [Example 2-201]
2. CCC1(c2ccccc2)CC1(NS(=O)(=O)c1ccc2c(c1)Cc1cc(F)ccc1-2)C(=O)O (stereo not drawn) [Example 2-146]
3. CN1CCN(c2ccc(C3CC3(NS(=O)(=O)c3ccc(-c4ccc(Cl)cc4)s3)C(=O)O)cc2)CC1 (stereo not drawn) [Example 2-246]
4. CN1CCN(C(=O)Cc2ccccc2C2CC2(NS(=O)(=O)c2ccc(-c3ccc(Cl)cc3)s2)C(=O)O)CC1 (stereo not drawn) [Example 2-195]
5. CC1(C)CC1(NS(=O)(=O)c1ccc(-c2ccc(Cl)cc2)s1)C(=O)O (stereo not drawn) [Example 2-147]
6. O=C(O)C1(NS(=O)(=O)c2ccc(-c3ccc(Cl)cc3)cc2)CC1c1cccc(Nc2ccccn2)c1 (stereo not drawn) [Example 1-61]
7. O=C(O)[C@]1(NS(=O)(=O)c2ccc(-c3ccc(Cl)cc3)s2)C[C@@H]1c1ccccc1Br [Example 2-178]

A)
["< 100 nM", "< 1000 nM", "< 1000 nM", "< 1000 nM", "≥ 1000 nM", "< 100 nM", "< 1000 nM"]

For every record below, what is its IC50?
1. O=C(O)[C@]1(NS(=O)(=O)c2ccc(-c3cc(CF)on3)s2)C[C@@H]1c1ccccc1 [Example 2-98]
2. O=C(O)[C@]1(NS(=O)(=O)/C=C/c2cccc(Cl)c2)C[C@@H]1c1ccccc1 [Example 2-153]

A)
1: < 100 nM; 2: ≥ 1000 nM

Q) Please supply the value of reported IC50 for the item O=C(Cc1ccccc1C1CC1(NS(=O)(=O)c1ccc(-c2cc(C(F)(F)F)on2)s1)C(=O)O)N1CCOCC1 (stereo not drawn) [Example 2-243]
A) < 100 nM

----------
- study-target: MMP-1 (Homo sapiens, UniProt P03956)
- Sequence (P03956 100-469, species assumed): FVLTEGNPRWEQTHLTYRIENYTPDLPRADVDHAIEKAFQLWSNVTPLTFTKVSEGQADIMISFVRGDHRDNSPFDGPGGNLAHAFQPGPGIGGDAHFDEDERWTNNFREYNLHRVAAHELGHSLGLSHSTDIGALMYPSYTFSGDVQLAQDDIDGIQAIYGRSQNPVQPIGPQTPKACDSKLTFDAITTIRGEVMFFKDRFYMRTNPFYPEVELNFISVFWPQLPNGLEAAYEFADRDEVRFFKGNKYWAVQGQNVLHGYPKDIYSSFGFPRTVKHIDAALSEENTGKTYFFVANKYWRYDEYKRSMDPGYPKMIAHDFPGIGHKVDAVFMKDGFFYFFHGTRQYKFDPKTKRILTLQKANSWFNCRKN
- procedure-details: MMP-1 inhibitory action (Type I collagen Activity Measurement kit, FITC-labeled collagen type I)
- Assay type: biochemical
- test-conditions: MMP-1 inhibitory action, FITC-labeled collagen type I, 37° C. for 3 hr; read-out: IC50 MMP1 (Experimental Example 2)
Give measured IC50 for each item. Keep answers brief.

Q) Report the value of IC50 obtained on MMP-1 (Homo sapiens, UniProt P03956) for CN(C)c1cccc(C2CC2(NS(=O)(=O)c2ccc(-c3ccc(Cl)cc3)s2)C(=O)O)c1 (centres unmarked) .
A) ≥ 1 µM

Q) Given CC1[C@H](c2ccccc2)[C@]1(NS(=O)(=O)c1ccc(-c2ccc(Cl)cc2)s1)C(=O)O (some centres unmarked) , report its IC50 on MMP-1 (Homo sapiens, UniProt P03956).
A) < 1 µM

Q) Please tell me the measured IC50 for O=C(O)[C@]1(NS(=O)(=O)c2ccc(-c3cccc(Cl)c3)s2)C[C@@H]1c1ccccc1 ; system: MMP-1 (Homo sapiens, UniProt P03956).
A) ≥ 1 µM

For every listed record, write down its IC50.
1. O=C(O)C1(NS(=O)(=O)c2ccc(-c3ccc(Cl)cc3)s2)CC1c1cccc(OCCN2CCOCC2)c1 (centres unmarked)
2. O=C(CN1CCOCC1)Nc1cccc(C2CC2(NS(=O)(=O)c2ccc(-c3cc(C(F)(F)F)on3)s2)C(=O)O)c1 (centres unmarked)
3. O=C(O)C1(NS(=O)(=O)c2ccc3c(c2)Cc2cc(Br)ccc2-3)CC1c1ccccc1 (centres unmarked)
4. O=C(NO)[C@]1(NS(=O)(=O)c2ccc(OCc3ccc(Cl)cc3Cl)cc2)[C@@H]2c3ccccc3C[C@@H]21 (relative stereo)
5. O=C(O)[C@]1(NS(=O)(=O)c2ccc(-c3cc(C(F)F)on3)cc2)C[C@@H]1c1ccccc1
6. O=C(O)C1(NS(=O)(=O)c2ccc(-c3ccc(Cl)cc3)s2)CC1c1ccccc1OCc1ccccn1 (centres unmarked)

A)
["≥ 10 µM", "≥ 1 µM", "≥ 1 µM", "≥ 10 µM", "≥ 10 µM", "≥ 10 µM"]

Return reported IC50 values for all items listed beneath this line.
1. O=C(O)C1(NS(=O)(=O)c2ccc(-c3ccc(Br)cc3)cc2)CC1c1ccccc1 (centres unmarked)
2. Cc1ncc(-c2ccc(S(=O)(=O)N[C@@]3(C(=O)O)C[C@@H]3c3ccccc3)s2)s1
3. O=C(O)C1(NS(=O)(=O)N2CC=C(c3ccc(Cl)cc3)CC2)CC1c1ccccc1 (centres unmarked)
4. O=C(O)[C@]1(NS(=O)(=O)c2ccc(-c3noc(C(F)(F)C(F)(F)F)n3)s2)C[C@@H]1c1ccccc1
5. CC(C)(C)OC(=O)N1CC=C(c2ccc(S(=O)(=O)N[C@@]3(C(=O)O)C[C@@H]3c3ccccc3)s2)CC1
6. O=C(O)C1(NS(=O)(=O)c2ccc(-c3ccc(Cl)cc3)cc2)CC1c1cccc(NCc2ncc[nH]2)c1 (centres unmarked)
7. Cc1cnn(-c2ccc(S(=O)(=O)N[C@@]3(C(=O)O)C[C@@H]3c3ccccc3)s2)c1

A)
1. ≥ 10 µM
2. ≥ 10 µM
3. ≥ 10 µM
4. ≥ 10 µM
5. ≥ 10 µM
6. ≥ 1 µM
7. ≥ 1 µM

Provide reported IC50 for each item, in the same order as listed.
1. O=C(O)C1(NS(=O)(=O)c2ccc(-c3cc(C(F)(F)F)on3)s2)CC1c1cccc(N2CCOCC2)c1 (centres unmarked)
2. CC(=O)N1CC=C(c2ccc(S(=O)(=O)N[C@@]3(C(=O)O)C[C@@H]3c3ccccc3)s2)CC1
3. O=C(OCCCc1ccccc1C1CC1(NS(=O)(=O)c1ccc(-c2cc(C(F)(F)F)on2)s1)C(=O)O)N1CCC[C@H]1CO (some centres unmarked)

A)
1: ≥ 1 µM; 2: ≥ 10 µM; 3: ≥ 1 µM
